Here the recorded growth inhibition by drug alone is given for each entry.
- System: U-2932
- assay_name: growth inhibition by drug alone (1 - RLU/untreated control) (fraction); higher = stronger inhibition
- condition_notes: 10 nM; time (day): 5; 177Lu-lilotomab satetraxetan 0 ug/ml
Where a name gives a salt, the structure may show the parent alone.
Keep the answer to the number alone.

See these solved cases before continuing.
Tested on U-2932: CCc1cc(Nc2nccc(-c3c(-c4ccc(OC)c(C(=O)Nc5c(F)cccc5F)c4)nc4ccccn34)n2)c(OC)cc1N1CCC(N2CCN(S(C)(=O)=O)CC2)CC1 . Observed growth inhibition by drug alone: -0.0609

Tested on U-2932: O=C1c2ccccc2-c2nc3nonc3nc21 . Observed growth inhibition by drug alone: -0.0474

Tested on U-2932: C[N+](C)([O-])CCNc1ccc(NCC[N+](C)(C)[O-])c2c1C(=O)c1c(O)ccc(O)c1C2=O [Banoxantrone dihydrochloride] . Observed growth inhibition by drug alone: -0.149

Tested on U-2932: NC(=O)Nc1sc(-c2ccc(F)cc2)cc1C(N)=O . Observed growth inhibition by drug alone: 0.0297

Tested on U-2932: CCOc1ccc(Cc2cc([C@@H]3O[C@H](CO)[C@@H](O)[C@H](O)[C@H]3O)ccc2Cl)cc1 . Observed growth inhibition by drug alone: -0.0277

Tested on U-2932: CC(C=CC(=O)NO)=CC(C)C(=O)c1ccc(N(C)C)cc1 (stereo not drawn) . Observed growth inhibition by drug alone: 0.00424

Tested on U-2932: Cc1cnc(NC(=O)Nc2cc(Br)c(C)cc2OC[C@@H]2CNCCO2)cn1 . Observed growth inhibition by drug alone: 0.0344

Tested on U-2932: COc1ncc(-c2ccc3nccc(-c4ccnnc4)c3c2)cc1NS(=O)(=O)c1ccc(F)cc1F . Observed growth inhibition by drug alone: 0.81

Tested on U-2932: Cc1cccc(-c2[nH]c(C(C)(C)C)nc2-c2ccc3nccnc3c2)n1 . Observed growth inhibition by drug alone: -0.0391

Tested on U-2932: COc1cc2nc(N3CCCN(C)CC3)nc(NC3CCN(Cc4ccccc4)CC3)c2cc1OC . Observed growth inhibition by drug alone: -0.00458

More entries:
Tested on U-2932: CC(=O)O[C@]1(C(C)=O)CC[C@H]2[C@@H]3C=C(C)C4=CC(=O)CC[C@]4(C)[C@H]3CC[C@@]21C [Megestrol Acetate] . Observed growth inhibition by drug alone: 0.0591
